Data origin, for the record: paper PMC6095626

- Test system: G. lamblia trophozoites (luciferase expressing, WBC6)
- assay-info: microbe, parasite or virus in culture
- Type: cell-based, Giardia lamblia
- test-settings: initial Pathogen Box screen, single concentration 16 µM, inhibition compared to DMSO wells
- Procedure: Trophozoites were harvested by chilling cultures on ice for 30 minutes and plated by adding 150 μL per well at a concentration of 250,000 cells/mL. Metronidazole (Sigma, St. Louis, MO) was used as a control and was serially diluted 1:2 from 40 μM to 0.04 μM and 150 μL was added to the 150 μL of the G. lamblia trophozoites. Plates were covered in plastic low-evaporation lids, sealed in individual anaerobic BD GasPak Bio-Bags (Becton Dickinson, San Jose, CA) and incubated at 37 °C for 24 hours. […]
endpoint-name: Giardia (16 uM) Mean % inhibition (%)
Numeric answer only, unit % assumed.

Data request: Please indicate recorded Giardia (16 uM) Mean % inhibition of "O=C(OCc1ccccc1)N1CCC(c2cc(-c3ccncc3)c(-c3ccc(F)cc3)[nH]2)CC1" measured with G. lamblia trophozoites (luciferase expressing, WBC6).
Data returned: 41

Data request: Please indicate recorded Giardia (16 uM) Mean % inhibition of "c1ccc(Oc2ccc(-c3cc(N4CCOCC4)n[nH]3)cc2)cc1" measured with G. lamblia trophozoites (luciferase expressing, WBC6).
Data returned: 16

Data request: Please indicate recorded Giardia (16 uM) Mean % inhibition of "N=C(N)c1ccc(-c2cc(-c3ccccc3)on2)cc1" measured with G. lamblia trophozoites (luciferase expressing, WBC6).
Data returned: 36

Data request: Please indicate recorded Giardia (16 uM) Mean % inhibition of CC1=Nc2ccc(Cl)cc2C(c2ccccc2)N1CCNC(=O)CN(C)C (stereo not shown) measured with G. lamblia trophozoites (luciferase expressing, WBC6).
Data returned: 20

Data request: Please indicate recorded Giardia (16 uM) Mean % inhibition of CC(C)C(Oc1cccc2ccccc12)C(=O)O (stereo not shown) measured with G. lamblia trophozoites (luciferase expressing, WBC6).
Data returned: 9

Data request: Please indicate recorded Giardia (16 uM) Mean % inhibition of CC1(O)CC(c2nc(-c3ccc4ccc(-c5ccccc5)nc4c3)c3c(N)nccn23)C1 (stereo not shown) measured with G. lamblia trophozoites (luciferase expressing, WBC6).
Data returned: 15

Data request: Please indicate recorded Giardia (16 uM) Mean % inhibition of "Cc1cc(C(=O)Nc2ccc(-c3ccccc3)cc2)no1" measured with G. lamblia trophozoites (luciferase expressing, WBC6).
Data returned: 43

Data request: Please indicate recorded Giardia (16 uM) Mean % inhibition of COc1ccc(CN2CCOc3ccc(C(C)(O)CN(C)C)cc3C2)cc1C (stereo not shown) measured with G. lamblia trophozoites (luciferase expressing, WBC6).
Data returned: 35

Data request: Please indicate recorded Giardia (16 uM) Mean % inhibition of "Cc1cnc(N2CCN[C@@H](Cc3ccccc3)C2)nc1Oc1ccc(-n2ccnc2)cc1" measured with G. lamblia trophozoites (luciferase expressing, WBC6).
Data returned: 49

Data request: Please indicate recorded Giardia (16 uM) Mean % inhibition of "O=C(NCCc1ccccc1)c1cc(-c2cccnc2)cnc1NCC1CC1" measured with G. lamblia trophozoites (luciferase expressing, WBC6).
Data returned: 12

Data request: Please indicate recorded Giardia (16 uM) Mean % inhibition of "Cc1cc(NCC(C)C)c2[nH]nc(-c3ccccc3)c2n1" measured with G. lamblia trophozoites (luciferase expressing, WBC6).
Data returned: 62

Data request: Please indicate recorded Giardia (16 uM) Mean % inhibition of "O=C(c1n[nH]c2c1CCCC2)N1CCN(Cc2ccc3c(c2)OCO3)CC1" measured with G. lamblia trophozoites (luciferase expressing, WBC6).
Data returned: 66

Data request: Please indicate recorded Giardia (16 uM) Mean % inhibition of c1ccc(-c2[nH]c3ccccc3c2C(c2ccccn2)N2CCCC2)cc1 (stereo not shown) measured with G. lamblia trophozoites (luciferase expressing, WBC6).
Data returned: 22

Data request: Please indicate recorded Giardia (16 uM) Mean % inhibition of CC1=Nc2ccc(Cl)cc2C(O)(c2ccc(C)cc2)N1CCN1CCCCC1 (stereo not shown) measured with G. lamblia trophozoites (luciferase expressing, WBC6).
Data returned: 65

Data request: Please indicate recorded Giardia (16 uM) Mean % inhibition of "CC(=O)N1CCc2cc3nc(C)cc(C)c3cc21" measured with G. lamblia trophozoites (luciferase expressing, WBC6).
Data returned: 45

Data request: Please indicate recorded Giardia (16 uM) Mean % inhibition of "Cc1cc(C)cc(COc2ccc3c(C)c(CCC(=O)O)c(=O)oc3c2C)c1" measured with G. lamblia trophozoites (luciferase expressing, WBC6).
Data returned: 35

Data request: Please indicate recorded Giardia (16 uM) Mean % inhibition of "O=C(c1cc2ccccc2o1)N1CCN(Cc2ccc3c(c2)OCO3)CC1" measured with G. lamblia trophozoites (luciferase expressing, WBC6).
Data returned: 0.776

Data request: Please indicate recorded Giardia (16 uM) Mean % inhibition of "Cc1ccc2[nH]c3c(NCCN(C)C)ncnc3c2c1" measured with G. lamblia trophozoites (luciferase expressing, WBC6).
Data returned: 21

Data request: Please indicate recorded Giardia (16 uM) Mean % inhibition of "Cc1ccc(S(=O)(=O)n2cc(-c3ccnc(N)c3)c3cc(Br)cnc32)cc1" measured with G. lamblia trophozoites (luciferase expressing, WBC6).
Data returned: 78

Data request: Please indicate recorded Giardia (16 uM) Mean % inhibition of "Cc1cc(Nc2ccc(C(F)(F)F)cc2)n2ccnc2n1" measured with G. lamblia trophozoites (luciferase expressing, WBC6).
Data returned: 35

Data request: Please indicate recorded Giardia (16 uM) Mean % inhibition of O=C(c1ccc(NCCO)cc1)C1C[C@H]1c1ccc(Cl)cc1 (stereo partly shown) measured with G. lamblia trophozoites (luciferase expressing, WBC6).
Data returned: 8

Data request: Please indicate recorded Giardia (16 uM) Mean % inhibition of "CCOC(=O)c1c(NC(=O)c2c(F)c(F)c(F)c(F)c2F)sc(C(N)=O)c1C" measured with G. lamblia trophozoites (luciferase expressing, WBC6).
Data returned: 97
